// provenance: the supplement of paper PMC11451515

Listing of recorded cell viability by entry.
Tested on: NOMO1
Assay: cell viability relative to DMSO control; higher = less cytotoxic
Settings: RPMI 5 mM glucose + 10% dialyzed FBS; 48 h; 1.71 µM
property.label: cell viability

1. COc1cc2nccc(Oc3ccc(NC(=O)Nc4ccc(F)cc4F)c(F)c3)c2cc1OC; 102%
2. C=C(C)[C@@H]1CC[C@]2(C)CC[C@]3(C)[C@H](CC[C@@H]4[C@@]5(C)CC[C@H](O)C(C)(C)[C@@H]5CC[C@]43C)[C@@H]12; 123%
3. O=C(NC1CCNCC1)c1n[nH]cc1NC(=O)c1c(Cl)cccc1Cl; 35.8%
4. COc1cc2nccc(Oc3ccc(NC(=O)C4(C(=O)Nc5ccc(F)cc5)CC4)cc3)c2cc1OC; 98%
5. CC/1=C/N([C@@H]2C[C@@H](O)[C@H](CO)O2)C(=O)NC1=O; 85%
6. C[C@@H](c1ncncc1F)[C@](O)(Cn1cncn1)c1ccc(F)cc1F; 116%
7. Cc1cc(O)c2c3c4c(cc(O)c13)C(C)(C)C(=O)c1c(O)cc(O)c(c1-4)C2=O; 107%
8. Nc1ccccc1NC(=O)c1ccc(CNc2nccc(-c3cccnc3)n2)cc1; 74.7%
9. C[C@H]1CN(C[C@@H](C)O1)CC(=O)NC2=CC=C3SC4=C(CC3=C2)C=CC=C4\C5=C\C(=O)\C=C(/O5)N6CCOCC6; 97.3%
10. CC#C[C@]1(O)CC[C@H]2[C@@H]/3CCC/4=C/C(=O)CCC4=C3[C@H](C[C@]12C)C5=CC=C(C=C5)N(C)C; 85.4%
11. O=[N+]([O-])c1cn2c(n1)OC[C@@H](OCc1ccc(OC(F)(F)F)cc1)C2; 118%
12. COc1cc2nccc(Oc3ccc(NC(=O)Nc4cc(C)on4)c(Cl)c3)c2cc1OC; 136%
13. O=C(NC1CCOCC1)c1ccc(-c2cc(-c3c[nH]nc3-c3ccccn3)ccn2)cc1; 104%
14. Cc1cc2c(C(C)C)c(O)c(O)c(C=O)c2c(O)c1-c1c(C)cc2c(C(C)C)c(O)c(O)c(C=O)c2c1O; 106%
15. NC1CCC(N[C@@H]2C[C@H]2c2ccccc2)CC1 (some centres undefined); 93.8%
16. O=C1Nc2ccccc2/C1=C1\Nc2ccccc2C1=O; 94.3%
17. CCC1=C[C@@H]2CN(C1)Cc1c([nH]c3ccccc13)[C@@](C(=O)OC)(c1cc3c(cc1OC)N(C)[C@H]1[C@@](O)(C(=O)OC)[C@H](OC(C)=O)[C@]4(CC)C=CCN5CC[C@]31[C@@H]54)C2; 26.5%
18. CNC(=O)c1cccc(-c2ccc3c(N4CCOC[C@@H]4C)nc(N4CCOC[C@@H]4C)nc3n2)c1; 54.8%
19. CC(C)C[C@H](CN)CC(=O)O; 89.3%

====

System: NOMO1
Test: cell viability relative to DMSO control; higher = less cytotoxic
Conditions: HPLM + 10% dialyzed FBS; 48 h; 15.4 µM
Lab note: compare cell viability with 70%, writing MET if less and NOT MET if equal or more.

1) C[N]1C=NC=C1[C@@](N)(C2=CC=C(Cl)C=C2)C3=CC=C4N(C)C(=O)\C=C(\C5=CC=CC(=C5)Cl)C4=C3; NOT MET
2) C#CCN(C)[C@H](C)Cc1ccccc1; NOT MET
3) Fc1cc(-c2cccc3ncc(-c4cnn(C5CCNCC5)c4)nc23)cc(F)c1CN1CCOCC1; MET
4) Cc1[nH]c(/C=C2\C(=O)Nc3ccc([S+](=O)([O-])N(C)c4cccc(Cl)c4)cc32)c(C)c1C(=O)N1CCN(C)CC1; NOT MET
5) Cc1c[nH]c(/C=C2\C(=O)Nc3ccccc32)c1CCC(=O)O; MET
6) C1Cc2[nH]nc(-c3nn[nH]n3)c2C1; NOT MET

====

Test system: P12-Ichikawa
Test: cell viability relative to DMSO control; higher = less cytotoxic
Conditions: HPLM + 10% dialyzed FBS; 48 h; 0.00234 µM
# cell viability listing for each entry below
property.label: cell viability (%)

1. Fc1cc(-c2cccc3ncc(-c4cnn(C5CCNCC5)c4)nc23)cc(F)c1CN1CCOCC1; 113
2. Cc1cc2c(C(C)C)c(O)c(O)c(C=O)c2c(O)c1-c1c(C)cc2c(C(C)C)c(O)c(O)c(C=O)c2c1O; 111
3. Cc1ccc(NC(=O)c2ccc(CN3CCN(C)CC3)cc2)cc1Nc1nccc(-c2cccnc2)n1; 95.7
4. CC1SC/2=C(C(O)=O)/C(=O)C3=CC(=C(C=C3N12)N4CCN(CC4)C\C5=C(C)\OC(=O)O5)F (stereo not drawn); 122
5. C#Cc1cccc(Nc2ncnc3cc(OCCOC)c(OCCO)cc23)c1; 111
6. CN1CCCN(C(=O)c2cccc(-c3ccc(/C=C4/C(=O)Nc5ccc(Cl)cc54)o3)c2)CC1; 119
7. FC(F)(F)c1ccc(Nc2nc3cc(Oc4ccnc(-c5ncc(C(F)(F)F)[nH]5)c4)ccc3[nH]2)cc1; 111
8. CCCCN(CCCC)CCC(O)c1cc2c(Cl)cc(Cl)cc2c2cc(C(F)(F)F)ccc12 (stereo not drawn); 122

====

Test system: P12-Ichikawa
Assay: cell viability relative to DMSO control; higher = less cytotoxic
Conditions: HPLM + 10% dialyzed FBS; 48 h; 0.00234 µM
property.label: cell viability

1) CC(C)C[C@H](CN)CC(=O)O; 106%
2) Clc1cccc(-c2nnnn2Cc2cccnc2)c1Cl; 96%
3) Fc1ccc(C(c2ccc(F)cc2)N2CCN(C/C=C/c3ccccc3)CC2)cc1; 121%
4) CC(C)(C)/[N+]([O-])=C/c1ccc([S+](=O)([O-])[O][Na])cc1[S+](=O)([O-])[O][Na]; 114%
5) NC1CCC(N[C@@H]2C[C@H]2c2ccccc2)CC1 (some centres undefined); 92.4%
6) C[C@@H]1C[C@H]2[C@@H]3\C=C(C)/C4=C/C5=C(C[C@]4(C)[C@H]3[C@@H](O)C[C@]2(C)[C@@]1(O)C(=O)COC(C)=O)C=N[N]5C6=CC=CC=C6; 107%
7) COc1cc2nccc(Oc3ccc(NC(=O)Nc4ccc(F)cc4F)c(F)c3)c2cc1OC; 93.2%
8) C=C(C)[C@@H]1CC[C@]2(C)CC[C@]3(C)[C@H](CC[C@@H]4[C@@]5(C)CC[C@H](O)C(C)(C)[C@@H]5CC[C@]43C)[C@@H]12; 115%
9) O=C1Nc2ccccc2/C1=C1\Nc2ccccc2C1=O; 106%

====

# Lookup of reported cell viability keyed by entry
Test system: SEM cells
Assay: cell viability relative to DMSO control; higher = less cytotoxic
Conditions: RPMI 5 mM glucose + 10% dialyzed FBS; 48 h; 5.12 µM
property.label: cell viability (%)

1. C[C@H](NC(=O)C(=O)Nc1ccccc1C(C)(C)C)C(=O)N[C@@H](CC(=O)O)C(=O)COc1c(F)c(F)cc(F)c1F; 56.9
2. CN1CCCN(C(=O)c2cccc(-c3ccc(/C=C4/C(=O)Nc5ccc(Cl)cc54)o3)c2)CC1; 20.4
3. COc1ccc(/C=C\c2cc(OC)c(OC)c(OC)c2)cc1O; 6.37
4. COc1cc2nccc(Oc3ccc(NC(=O)C4(C(=O)Nc5ccc(F)cc5)CC4)cc3)c2cc1OC; 40.1

====

Test system: NOMO1
Assay: cell viability relative to DMSO control; higher = less cytotoxic
Conditions: RPMI 5 mM glucose + 10% FBS; 48 h; 0.569 µM
Measured cell viability values are reported for all entries that follow.
property.label: cell viability (%)

1) Nc1nc(-c2nn(Cc3ccccc3F)c3ncccc23)nc(N)c1N1CCOCC1; 113
2) O=C(NC1CCOCC1)c1ccc(-c2cc(-c3c[nH]nc3-c3ccccn3)ccn2)cc1; 93.2
3) CNC(=O)c1cccc(-c2ccc3c(N4CCOC[C@@H]4C)nc(N4CCOC[C@@H]4C)nc3n2)c1; 87.2
4) NC(=O)c1ccc(-c2nc(-c3ccc4c(c3)OCCO4)c(-c3ccccn3)[nH]2)cc1; 121

====

Measured AUC of viability dose-response curve, listed per entry.
Test system: NOMO1
Test: AUC of viability dose-response curve (% viability x log10 dose units); higher = less sensitive
Details: RPMI 5 mM glucose + 10% dialyzed FBS; 48 h
property.label: AUC of viability dose-response curve

1) Cc1ccc(NC(=O)c2ccc(CN3CCN(C)CC3)cc2)cc1Nc1nccc(-c2cccnc2)n1; 454
2) CN1[C@@H]2CCC[C@H]1C[C@@H](NC(=O)c1nn(C)c3ccccc13)C2.Cl; 465
3) COC(=O)C1=C(C)NC(C)=C(C(=O)OCCN2CCN(C(c3ccccc3)c3ccccc3)CC2)C1c1cccc([N+](=O)[O-])c1.Cl.Cl (stereo not given); 445
4) CC#C[C@]1(O)CC[C@H]2[C@@H]/3CCC/4=C/C(=O)CCC4=C3[C@H](C[C@]12C)C5=CC=C(C=C5)N(C)C; 370
5) CN(C)CCOC(c1ccccc1)c1ccccc1; 467
6) CCOC(=O)C/1=C(C)/NC(=S)NC1C2=CC=CC(=C2)O (stereo not given); 300
7) CC(=O)N1CCN(c2ccc(OCc3nn(C)c(C)c3-c3cccc4c(CCCOc5cc(C)c(Cl)c(C)c5)c(C(=O)O)n(Cc5cccnc5)c34)cc2)CC1; 457
8) O=C(O)[C@H](Cc1c[nH]c2ccccc12)N1C(=O)c2ccccc2C1=O; 470
9) Fc1ccc(C(c2ccc(F)cc2)N2CCN(C/C=C/c3ccccc3)CC2)cc1; 457
10) NC(=O)c1cccc(-c2cccc(OC(=O)NC3CCCCC3)c2)c1; 472
